molecular target: human kappa opioid receptors (Homo sapiens); construct: expressed in transfected cells; host or cells: U2OS; experiment: [35S]GTPγS binding, membranes from U2OS cells; assay type: biochemical; conditions: read-out: GTPγS (% efficacy)
Answer Not fulfilled if Emax is under 90%, and Fulfilled if it is 90% or more.

1) O=C(Cc1ccc(Cl)c(Cl)c1)N1CCN(C(=O)C2(O)CC2)[C@H]2COC[C@@H](N3CCCC3)[C@@H]21 (single isomer, unassigned) [Example 5A126B] | Fulfilled
2) CCNC(=O)CN1CCN(C(=O)Cc2ccc(Cl)c(Cl)c2)[C@H]2[C@H]1COC[C@@H]2N1CCCC1 (racemic) [rac-5A112] | Not fulfilled
3) O=C(Cc1ccc(Cl)c(Cl)c1)N1CCN(Cc2ncco2)[C@@H]2COC[C@H](N3CCCC3)[C@H]21 (racemic) [rac-5A111] | Fulfilled
4) O=C(Cc1ccc(Cl)c(Cl)c1)N1CCN(C(=O)c2cc[nH]n2)[C@@H]2COC[C@H](N3CCCC3)[C@H]21 (racemic) [rac-5A122] | Not fulfilled
5) Cn1cc(CN2CCN(C(=O)Cc3ccc(Cl)c(Cl)c3)[C@H]3[C@H]2COC[C@@H]3N2CCCC2)cn1 (racemic) [rac-5A79] | Not fulfilled
6) O=C(Cc1ccc(Cl)c(Cl)c1)N1CCN(Cc2ncon2)[C@@H]2COC[C@H](N3CCCC3)[C@H]21 (racemic) [rac-5A100] | Not fulfilled
7) CC(C)(O)C(=O)N1CCN(C(=O)Cc2ccc(Cl)c(Cl)c2)[C@H]2[C@H]1COC[C@@H]2N1CCCC1 [Example 5A96A] | Not fulfilled
8) CN(C)S(=O)(=O)N1CCN(C(=O)Cc2ccc(Cl)c(Cl)c2)[C@H]2[C@H](N3CCCC3)COC[C@@H]21 (single isomer, unassigned) [Example 5A56B] | Fulfilled
9) O=C(O)CN1CCN(C(=O)Cc2ccc(Cl)c(Cl)c2)[C@H]2[C@H]1COC[C@@H]2N1CCCC1 (racemic) [rac-5A88] | Not fulfilled
10) O=C(Cc1ccc(Cl)c(Cl)c1)N1CCN(C(=O)C2(O)CCCC2)[C@@H]2COC[C@H](N3CCCC3)[C@H]21 (single isomer, unassigned) [Example 5A125A] | Fulfilled
11) O=C(Cc1ccc(Cl)c(Cl)c1)N1CCN(C(=O)c2ccno2)[C@@H]2COC[C@H](N3CCCC3)[C@H]21 (racemic) [rac-5A121] | Not fulfilled
12) O=C(Cc1ccc(Cl)c(Cl)c1)N1CCN(CC2COC2)[C@H]2COC[C@@H](N3CCCC3)[C@@H]21 (single isomer, unassigned) [Example 5A83B] | Fulfilled
13) CN(C)S(=O)(=O)N1CCN(C(=O)Cc2ccc(Cl)c(Cl)c2)[C@H]2[C@H]1COC[C@@H]2N1CCCC1 (single isomer, unassigned) [Example 5A56A] | Not fulfilled
14) O=C(Cc1ccc(Cl)c(Cl)c1)N1CCN(Cc2ccn[nH]2)[C@@H]2COC[C@H](N3CCCC3)[C@H]21 (racemic) [rac-5A108] | Fulfilled
15) O=C(Cc1ccc(Cl)c(Cl)c1)N1CCN(CC2CCCO2)[C@H]2COC[C@@H](N3CCCC3)[C@@H]21 (single isomer, unassigned) [Example 5A138D] | Fulfilled
16) O=C(Cc1ccc(Cl)c(Cl)c1)N1CCN(CC2COC2)[C@@H]2COC[C@H](N3CCCC3)[C@H]21 (single isomer, unassigned) [Example 5A83A] | Fulfilled
17) CC(C)(O)C(=O)N1CCN(C(=O)Cc2ccc(Cl)c(Cl)c2)[C@H]2[C@H](N3CCCC3)COC[C@@H]21 [Example 5A96B] | Fulfilled
18) O=C(Cc1ccc(Cl)c(Cl)c1)N1CCN(Cc2ncccn2)[C@@H]2COC[C@H](N3CCCC3)[C@H]21 (racemic) [rac-5A69] | Fulfilled
19) O=C(Cc1ccc(Cl)c(Cl)c1)N1CCN(C(=O)c2cn[nH]c2)[C@@H]2COC[C@H](N3CCCC3)[C@H]21 (racemic) [rac-5A123] | Not fulfilled

* * *

molecular target: human kappa opioid receptors (Homo sapiens); construct: expressed in transfected cells; host or cells: U2OS; assay: [35S]GTPγS binding, membranes from U2OS cells; format: biochemical; details: read-out: GTPγS (% efficacy)
Measured Emax by item
readout_label: Emax

1. O=C(Cc1ccc(Cl)c(Cl)c1)N1CCN(CCO)[C@@H]2COC[C@H](N3CCCC3)[C@H]21 (single isomer, unassigned) [Example 5A74A] | 95%
2. O=C(Cc1ccc(Cl)c(Cl)c1)N1CCN(CCC2COC2)[C@@H]2COC[C@H](N3CCCC3)[C@H]21 (single isomer, unassigned) [Example 5A142A] | 77%
3. NC(=O)CN1CCN(C(=O)Cc2ccc(Cl)c(Cl)c2)[C@H]2[C@H]1COC[C@@H]2N1CCCC1 (racemic) [rac-5A102] | 96%

* * *

The compounds listed here are annotated with their EC50.
target: UniProt:P41145; assay: β-arrestin PathHunter assay (U2OS hOPRK1)
readout_label: EC50 (µM)

1. CC(C)(O)CN1CCN(C(=O)Cc2ccc(Cl)c(Cl)c2)[C@H]2[C@H](N3CCCC3)COC[C@@H]21 (single isomer, unassigned) [Example 5A90B] | 5.25
2. CC(C)(O)CN1CCN(C(=O)Cc2ccc(Cl)c(Cl)c2)[C@H]2[C@H]1COC[C@@H]2N1CCCC1 (single isomer, unassigned) [Example 5A90A] | 43.2
3. CC(C)(O)C(=O)N1CCN(C(=O)Cc2ccc(Cl)c(Cl)c2)[C@H]2[C@H](N3CCCC3)COC[C@@H]21 [Example 5A96B] | 24.8
4. CC(C)(O)C(=O)N1CCN(C(=O)Cc2ccc(Cl)c(Cl)c2)[C@H]2[C@H]1COC[C@@H]2N1CCCC1 [Example 5A96A] | 3.76

* * *

# maps each entry to its Emax
biological target: human kappa opioid receptors (Homo sapiens, UniProt P41145); construct: expressed in transfected cells; host or cells: U2OS; assay: [35S]GTPγS binding, membranes from U2OS cells; assay type: biochemical; details: read-out: GTPγS (% efficacy)
Sequence (P41145 whole entry): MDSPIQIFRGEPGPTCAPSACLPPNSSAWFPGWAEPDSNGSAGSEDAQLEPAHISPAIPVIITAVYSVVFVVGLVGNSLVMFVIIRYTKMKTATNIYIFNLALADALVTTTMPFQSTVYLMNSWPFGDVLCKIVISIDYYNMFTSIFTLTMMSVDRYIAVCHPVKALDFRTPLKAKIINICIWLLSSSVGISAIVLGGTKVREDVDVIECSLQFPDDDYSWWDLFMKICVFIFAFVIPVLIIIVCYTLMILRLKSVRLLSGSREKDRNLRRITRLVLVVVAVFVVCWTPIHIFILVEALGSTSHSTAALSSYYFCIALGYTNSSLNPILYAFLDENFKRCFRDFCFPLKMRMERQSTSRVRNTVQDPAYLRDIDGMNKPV
readout_label: Emax (%)

1) CC(C)(O)CN1CCN(C(=O)Cc2ccc(Cl)c(Cl)c2)[C@H]2[C@H]1COC[C@@H]2N1CCCC1 (single isomer, unassigned) [Example 5A90A] | 101
2) O=C(Cc1ccc(Cl)c(Cl)c1)N1CCN(Cc2ccon2)[C@H]2COC[C@@H](N3CCCC3)[C@@H]21 [Example 5A86B] | 79
3) O=C(Cc1ccc(Cl)c(Cl)c1)N1CCN(Cc2ccc(F)cc2)[C@@H]2COC[C@H](N3CCCC3)[C@H]21 (single isomer, unassigned) [Example 5A136A] | 105
4) O=C(Cc1ccc(Cl)c(Cl)c1)N1CCN(S(=O)(=O)CCO)[C@H]2COC[C@@H](N3CCCC3)[C@@H]21 (single isomer, unassigned) [Example 5A140B] | 107
5) N#CCN1CCN(C(=O)Cc2ccc(Cl)c(Cl)c2)[C@H]2[C@H]1COC[C@@H]2N1CCCC1 (racemic) [rac-5A87] | 115
6) CC(F)(F)CN1CCN(C(=O)Cc2ccc(Cl)c(Cl)c2)[C@H]2[C@H]1COC[C@@H]2N1CCCC1 [Example 5A127A] | 110

* * *

molecular target: human kappa opioid receptors (Homo sapiens, UniProt P41145); construct: expressed in transfected cells; host or cells: U2OS; test: [35S]GTPγS binding, membranes from U2OS cells; type: biochemical; conditions: GTPγS EC50 (nM), Table D
Each entry below carries its recorded EC50.
readout_label: EC50 (nM)

1. O=C(Cc1ccc(Cl)c(Cl)c1)N1CCN(CCO)[C@H]2COC[C@@H](N3CCCC3)[C@@H]21 (single isomer, unassigned) [Example 5A74B] | 12
2. CC(C)(O)C(=O)N1CCN(C(=O)Cc2ccc(Cl)c(Cl)c2)[C@H]2[C@H](N3CCCC3)COC[C@@H]21 [Example 5A96B] | 64
3. O=C(Cc1ccc(Cl)c(Cl)c1)N1CCN(Cc2ccon2)[C@@H]2COC[C@H](N3CCCC3)[C@H]21 [Example 5A86A] | 1
4. N#CCN1CCN(C(=O)Cc2ccc(Cl)c(Cl)c2)[C@H]2[C@H]1COC[C@@H]2N1CCCC1 (racemic) | 20
5. CCNC(=O)CN1CCN(C(=O)Cc2ccc(Cl)c(Cl)c2)[C@H]2[C@H]1COC[C@@H]2N1CCCC1 (racemic) | 85
6. O=C(Cc1ccc(Cl)c(Cl)c1)N1CCN(C(=O)c2ccno2)[C@@H]2COC[C@H](N3CCCC3)[C@H]21 (racemic) | 17
7. CN(C)S(=O)(=O)N1CCN(C(=O)Cc2ccc(Cl)c(Cl)c2)[C@H]2[C@H](N3CCCC3)COC[C@@H]21 (single isomer, unassigned) [Example 5A56B] | 123
8. O=C(Cc1ccc(Cl)c(Cl)c1)N1CCN(Cc2cn[nH]c2)[C@@H]2COC[C@H](N3CCCC3)[C@H]21 (racemic) | 3.9
